B1: ZNF75A (parent)
chain: RTHTGEQPYTCSICRRNFSRRSSL

Variants of: B1
Experiment: protein stability index of a GFP-peptide fusion (GPS, HEK-293T) (PSI 1-6); higher = more stable;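 also: lentivirally expressed fusions sorted by FACS into six bins by GFP to DsRed ratio, PSI derived from sequencing read proportions per bin multiplied by bin number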
Settings: c terminus: a fixed tail appended
parameter measured: protein stability index

F18H
2.83
Q7Y
2.36
T10H
2.85
L24K
4.06

Reference source: the supplement of paper PMC10567573
